# system_under_test: T1, Cav3.1 (Homo sapiens, UniProt O43497)
# T1 construct: expressed in transfected cells; host or cells: HEK-293, stably transfected
# experimental_details: Whole-cell patch clamp of Cav3.1 dependent LVA calcium current in HEK-293/Cav3.1 cells transiently transfected with γ subunits (Example 1)
# Assay type: cell-based
# measurement_context: Table 2
reported_endpoint: V peak

Using the record for γ6L: rat calcium channel γ6 subunit, long isoform (AF361343), SEQ ID NO:48 (protein, listed as Rattus norvegicus) MMWSNFFMQEEDRRRTAVGRRRAQEQQNLGLTPEREGKIKLGLLVAIVGATLAVLAVGTEFWVELNTYKTNGSAVCEAAHLGLWKVCIKRLWQADVPAGRETCGPAELPGEANCTYFKFFTTGENAHIFQRTTKKEVNLAAAVIAVLGLTAMALGCLCVIMVLSKGAEFLLRLGAVCFGLSGLLLFVSLEVFRHSVRALLQGVNPETPPAPRLAYEYSWSLGCGVGAGLILLLGGVCFLLLTLPSWPWRSLCPKRGGPTA , state its measured V peak. −31.1 ± 3.1 (n = 9) mV
